molecular target: Toll-like receptor 9 (Mus musculus); assay: Inhibition of TLR9 in BALB/c mouse BMDM assessed as downregulation of CpG-stimulated IL-12p40 level at 5 ug/ml preincubated for 18 hrs followed by CpG challenge measured after 24 hrs by ELISA relative to control
Calls of active or inactive are those of the source. No rule for the calls is given here.
Pick one and only one: active, inactive

Past entries and their recorded results:
# mol-smiles, class-label
records = [
    ("COc1cccc(C(=O)NCCCN(C)C)c1", "inactive"),
    ("Cc1ccc(CS(=O)(=O)CCN2CCCC2)cc1", "inactive"),
    ("CN(C)CCN(C)CCS(=O)(=O)Cc1ccc(F)cc1", "inactive"),
    ("Cc1ccc(CS(=O)(=O)NCCN2CCCC2)cc1", "inactive"),
    ("O=S(=O)(CCN1CCCC1)Nc1ccccc1", "active"),
    ("O=S(=O)(Cc1ccc(F)cc1)NCCN1CCCC1", "inactive"),
]

Exercise: Check the results log: what was the call for `CC[C@@H](C)NCCS(=O)(=O)c1ccccc1` ?
Solution: inactive
